- Tested on: RXF 393 renal
- assay: NCI-60 one-dose screen, 48 h (100 = growth as untreated, 0 = no growth, -100 = all killed)
- conditionLabel: 10 µM unless noted
This is part of a sample that, as a whole, favours compounds with a hit. Of some 83,000 tested, about 20% had one in any assay.
List of growth values.
All answers are understood in %, so give the number only.

growth for CCOC(=O)c1c(N)c(C#N)cn1Cc1ccc(Cl)cc1Cl ?
63.1

Looking for the measured growth of C=C(C=O)[C@@H]1CC[C@]2(C(=O)O)CC[C@]3(C)C(CC[C@@H]4[C@@](C)(CCC#N)[C@H](C(=C)C=O)CC[C@]43C)[C@@H]12 (some centres undefined) , can you help?
44

Return reported growth; argument: COC(=O)c1cccc(NC2=C(Cl)C(=O)C(C)=C(C)C2=O)c1
104

Name the reported growth value associated with the molecule O=S(=O)(Oc1ccc(-c2cn3ccoc3n2)cc1)c1cccc(C(F)(F)F)c1
98.2

So what's the measured growth for this one? COc1cc2c3c(cc4c5c(ccc4c3c1OC)OCO5)N(CCN(C)C)C2=O
-88.5

Fill in: growth of CN1CCN(c2ccc(Nc3nc(NCCCNS(=O)(=O)c4cccc(F)c4)c4sccc4n3)cc2)CC1 is ___
-71.4

So what's the measured growth for this one? O=C(CSc1nc2ccccc2c(=O)n1-c1ccccc1)N/N=C/c1ccc(Oc2ccc(Cl)cc2)cc1
42

What value of measured growth is listed for O=C(CCCCCCNC(=O)c1csc(Br)n1)NO ?
3.36

// lookup growth for Cc1ccc(OCc2occc2C(=O)N2CCOCC2)cc1
99.8

Value lookup for growth; key = Cc1nc(N)sc1-c1csc(Nc2ccc(C(F)(F)F)cc2)n1
18.3

---
Reported growth, molecule CNC(=O)c1cc(N2CCc3cc(NC(=O)Nc4ccc(N5CCOCC5)c(C(F)(F)F)c4)ccc32)ccn1 : ____
-6.79

I have this molecule here, COc1ccc(-c2cnc(NC(=O)CCCCCCNC(=O)C(O)(O)C(F)(F)F)s2)cc1 , and I need its recorded growth.
-48

Endpoint output: growth of CCN(CC)S(=O)(=O)c1ccc(-c2nc(C(Cl)Cl)nc3cc(-c4ccc(F)cc4)nn23)cc1 . Value?
-30.2

Which measured growth value corresponds to COc1cc(-c2nc(-c3ccccc3)[nH]c2-c2ccnc(NCCCNS(=O)(=O)c3ccc(C)cc3)n2)ccc1F ?
82.7

Recorded growth for Clc1ccc2c(N/N=C/c3c[nH]c4ccccc34)ccnc2c1 , please?
-87.2

# lookup: growth of CC(C)(C)c1cc(NC(=O)Nc2ccc(-c3cn4c5c(sc4n3)CCc3cn(CCCN4CCCCC4)cc3-5)cc2)no1
-71.6

Give its growth value. Item: Brc1ccc(-c2cc(-c3ccc4c(c3)OCCO4)n[nH]2)s1
32

Item under review: C/C(CC1(O)C(=O)Nc2ccccc21)=N\O (centres undefined) . Reported growth?
103

Returns the measured growth for the input molecule. Input: Cc1[nH]c(C(=O)Nc2ccc(C(N)=O)cc2N2CCOC(C)C2)c(Cl)c1Cl (centres undefined)
102

Given O=C(NCCNc1cc(-c2cn(-c3ccccc3)nc2-c2cccc(O)c2)ccn1)Nc1cc(C(F)(F)F)cc(C(F)(F)F)c1 , state its recorded growth.
86.7

Looking for the measured growth of Cc1ccc(C(=O)CSc2nnc(-c3ccc(-c4ccc(Cl)cc4)nc3C)o2)cc1 , can you help?
119

// query growth value for entry Cn1cc(-c2cc3ncnc(Nc4ccc(CC(=O)Nc5nc(C(C)(C)C)cs5)cc4)c3s2)cn1
26.4

Data credit: PubChem BioAssay (NCI)
